Consider the following pIC50 values measured on ROCK2 (human) (UniProt O75116).
Sequence (O75116 whole entry, looked up): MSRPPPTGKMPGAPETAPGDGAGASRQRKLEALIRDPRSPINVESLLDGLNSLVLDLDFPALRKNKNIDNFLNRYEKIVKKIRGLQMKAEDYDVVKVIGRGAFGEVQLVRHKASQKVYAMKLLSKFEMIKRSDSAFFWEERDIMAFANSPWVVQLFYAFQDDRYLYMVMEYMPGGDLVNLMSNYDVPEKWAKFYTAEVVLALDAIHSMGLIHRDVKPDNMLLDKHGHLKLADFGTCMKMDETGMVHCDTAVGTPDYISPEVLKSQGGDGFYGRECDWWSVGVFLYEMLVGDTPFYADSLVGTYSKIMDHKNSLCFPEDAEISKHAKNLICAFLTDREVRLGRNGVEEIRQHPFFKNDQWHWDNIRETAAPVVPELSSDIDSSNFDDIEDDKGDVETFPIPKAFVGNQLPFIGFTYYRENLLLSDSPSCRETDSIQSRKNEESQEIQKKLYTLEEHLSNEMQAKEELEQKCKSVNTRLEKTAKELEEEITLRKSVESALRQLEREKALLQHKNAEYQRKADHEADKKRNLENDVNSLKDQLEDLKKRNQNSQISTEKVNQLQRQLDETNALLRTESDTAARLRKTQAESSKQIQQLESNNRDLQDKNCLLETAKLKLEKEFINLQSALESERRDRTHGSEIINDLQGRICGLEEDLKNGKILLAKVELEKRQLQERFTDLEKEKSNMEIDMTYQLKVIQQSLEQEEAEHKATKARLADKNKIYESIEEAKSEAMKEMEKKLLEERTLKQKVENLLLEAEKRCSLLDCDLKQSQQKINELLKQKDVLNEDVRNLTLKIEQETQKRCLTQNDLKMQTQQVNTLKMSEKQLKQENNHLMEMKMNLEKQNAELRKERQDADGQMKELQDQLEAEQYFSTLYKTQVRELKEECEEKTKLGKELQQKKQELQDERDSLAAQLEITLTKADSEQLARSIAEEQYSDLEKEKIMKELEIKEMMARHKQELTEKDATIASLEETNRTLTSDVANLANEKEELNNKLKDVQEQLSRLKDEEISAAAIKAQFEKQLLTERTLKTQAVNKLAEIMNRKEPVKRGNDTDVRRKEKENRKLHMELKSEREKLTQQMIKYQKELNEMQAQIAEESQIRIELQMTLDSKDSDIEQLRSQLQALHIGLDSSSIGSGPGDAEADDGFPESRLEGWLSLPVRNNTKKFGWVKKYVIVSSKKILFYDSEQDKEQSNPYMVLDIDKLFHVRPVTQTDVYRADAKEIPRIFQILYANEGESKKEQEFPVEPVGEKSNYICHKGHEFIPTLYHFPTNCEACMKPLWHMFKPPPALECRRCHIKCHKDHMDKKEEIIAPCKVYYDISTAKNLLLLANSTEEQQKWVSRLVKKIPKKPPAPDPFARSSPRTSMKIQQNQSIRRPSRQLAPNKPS
pIC50: −log10 of the molar value.
recordedMetric: pIC50

Example entries and their recorded answers appear below.
O=C(NCc1ccccc1)Nc1ccc(-c2cn[nH]c2)cc1    7.74
COc1cccc(CNC(=O)Nc2ccc(-c3ccnc(N)c3)cc2)c1    7.36
CCN(Cc1cccc(OC)c1)C(=O)Nc1ccc(-c2cn[nH]c2)cc1N(C)CCN(C)C    8.22
Nc1cccc(CNC(=O)Nc2ccc(-c3cn[nH]c3)cc2)c1    8.52
COc1cccc(CNC(=O)Nc2ccc(-c3ncnc4[nH]ccc34)cc2)c1    6.73

(A) COc1cccc(CNC(=O)Nc2ccc(-c3cn[nH]c3)cc2)c1
(B) COc1cccc(CNC(=O)Nc2ccc(-c3ccnc(N)n3)cc2)c1
# input // which entry has the larger pIC50 value, A or B ? Your answer should be the label of the entry you select.
# output A
